System: RAW264.7
Test: Antiinflammatory activity against mouse RAW264.7 cells assessed as reduction of LPS-induced NO production preincubated for 2 hrs followed by LPS-stimulation and measured after 12 hrs by Griess reagent assay
Assay type: functional, cell-based

>  <chemical.smiles>
C=C1[C@H]2[C@H](O)C[C@@](C)(O)[C@H]2C[C@@]2(C)CC[C@H]([C@@H](C)CC/C=C(\C)C(=O)O)[C@@H]2C[C@@H]1O

>  <IC50>
> 40 µM

$$$$
>  <chemical.smiles>
CC(C)=C/C=C\[C@H](C)[C@H]1CC[C@]2(C)C[C@@]3(O)[C@H](C)C[C@@H](O)[C@@H]3/C(CO)=C\C[C@@H]12

>  <IC50>
> 40 µM

$$$$
>  <chemical.smiles>
CC(C)=C/C=C\[C@H](C)[C@H]1CC[C@]2(C)C[C@@H]3C(C)=CC(=O)[C@H]3[C@H](CO)CC[C@@H]12

>  <IC50>
8.31 µM

$$$$
>  <chemical.smiles>
CC(C)=CCC[C@H](C)[C@H]1CC[C@]2(C)C[C@@]3(O)[C@H](C)CC[C@@H]3/C(CO)=C\C[C@@H]12

>  <IC50>
> 40 µM

$$$$
>  <chemical.smiles>
CC(C)=C/C=C\[C@H](C)[C@H]1CC[C@]2(C)C[C@@]3(O)[C@H](C)CC[C@@H]3/C(CO)=C\C[C@@H]12

>  <IC50>
> 40 µM

$$$$
>  <chemical.smiles>
CC(C)=C/C=C/[C@H](C)[C@H]1CC[C@]2(C)C[C@@]3(O)[C@H](C)C[C@@H](O)[C@@H]3/C(CO)=C\C[C@@H]12

>  <IC50>
> 40 µM

$$$$
